Consider the following compounds and their measured IC50 readings.
System: THP-1
Protocol Text: Cytotoxicity against human THP-1 cells assessed as cell viability measured after 24 hrs by CCK-8 assay
Assay type: functional, cell-based
Condition Info: THP-1, 24 h

Chemical Smiles: CN(C)C/C=C/C(=O)Nc1ccc(C(=O)Nc2cccc(Nc3ncc(Cl)c(-c4c[nH]c5ccccc45)n3)c2)cc1
Experimental Value: 77 µM

Lab note: next compound to report on.
Given the compound C=CC(=O)Nc1ccc(C(=O)Nc2n[nH]c3ccc(-c4cncc(NC[C@@H](O)c5ccccc5)c4)cc23)cc1 , what is its reported IC50?
13 µM

* * *

Consider the following molecules and their measured IC50 readings.
Target Entity: Cyclin-dependent kinase 7 (Homo sapiens)
Sequence (P50613 whole entry): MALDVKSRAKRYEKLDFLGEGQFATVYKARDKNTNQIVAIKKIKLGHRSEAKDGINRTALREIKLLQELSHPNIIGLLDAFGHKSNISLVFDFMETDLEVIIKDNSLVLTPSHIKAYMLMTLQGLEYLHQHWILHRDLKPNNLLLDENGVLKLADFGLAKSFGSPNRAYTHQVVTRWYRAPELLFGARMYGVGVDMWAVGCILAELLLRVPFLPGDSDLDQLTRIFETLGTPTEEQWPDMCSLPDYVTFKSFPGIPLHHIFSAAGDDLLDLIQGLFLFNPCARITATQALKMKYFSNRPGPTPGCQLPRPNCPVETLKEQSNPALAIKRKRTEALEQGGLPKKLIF
Protocol Text: Inhibition of CDK7 (unknown origin) assessed as phosphorylation of ULight 4EBP1 peptide substrate measured after 2 hrs by FRET-based LANCE Ultra KinSelect assay
Give the number; nM is assumed, so skip it.

Chemical Smiles: C=CC(=O)Nc1ccc(C(=O)Nc2n[nH]c3ccc(-c4cncc(NC[C@H](O)c5ccccc5)c4)cc23)cc1
IC50 / nM: 6
--
Chemical Smiles: C=CC(=O)Nc1ccc(C(=O)Nc2n[nH]c3ccc(-c4cncc(NC(=O)[C@@H](N)c5ccccc5)c4)cc23)cc1
IC50 / nM: 64
--
Chemical Smiles: O=C(Nc1n[nH]c2ccc(-c3cncc(NC[C@H](CO)c4ccccc4)c3)cc12)c1ccccc1
IC50 / nM: 1730

Lab note: next molecule to report on.
Given the molecule O=C(Nc1n[nH]c2ccc(-c3cncc(NC[C@H](CO)Cc4ccccc4)c3)cc12)c1ccccc1 , what is its reported IC50?
2640

Reference source for all entries: ChEMBL document CHEMBL5236590
